Test system: KARPAS-620 (Plasma Cell Myeloma)
protocol: combination Emax (second highest fraction inhibited in the dose matrix, 72 h); higher = more inhibition; extreme values may be limits of the assay
recorded_metric: combination Emax
One number for each entry.

Look up combination Emax for this molecule: C[C@@H](Nc1cc(F)cc(F)c1)c1cc(C(=O)N(C)C)cc2c(=O)cc(N3CCOCC3)oc12 [AZD8186] + C1CN(CCC1(C(=O)N[C@@H](CCO)C2=CC=C(C=C2)Cl)N)C3=NC=NC4=C3C=CN4 [AZD5363] (first compound max 10 µM, 7x7, partner max 10 µM)
0.767

Attention now turns to another entry.
Name the recorded combination Emax for O=C(c1cc(Cc2n[nH]c(=O)c3ccccc23)ccc1F)N1CCN(C(=O)C2CC2)CC1 [Olaparib] + Cc1c2c(nn1C)CSCc1cc(n(C)n1)CSc1cc(c3ccccc3c1)OCCCc1c(C(=O)O)n(C)c3c-2c(Cl)ccc13 [AZD5991] (first compound max 10 µM, 7x7, partner max 1 µM) .
1
